The origin of these recorded values is paper PMC11574364.

List of binding signal values.
- ASSAYED_SYSTEM: SLIRP (Homo sapiens)
- ASSAY_METHOD_TEXT: protein domain microarray probed with biotinylated miRNA; Domain array: 20 mM Tris-HCl pH 7.4, 200 mM KCl, 0.2 mM EDTA, 0.05% NP40, 2 ug/ul heparin, overnight 4 C. ORF array: PBS pH 7.0 with RNase inhibitor, 100 ng RNA; high values mean tight binding
- PARTICULARS: ssRNA

CONSTRUCT_SEQUENCE: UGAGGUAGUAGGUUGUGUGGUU
ASSAYED_SYSTEM: SLIRP (Homo sapiens)
binding signal [fluorescence intensity]: 232
//
CONSTRUCT_SEQUENCE: CAGUGCAAUGAUGAAAGGGCAU
ASSAYED_SYSTEM: SLIRP (Homo sapiens)
binding signal [fluorescence intensity]: 55.4
//
CONSTRUCT_SEQUENCE: UAGCUUAUCAGACUGAUGUUGA
ASSAYED_SYSTEM: SLIRP (Homo sapiens)
binding signal [fluorescence intensity]: 24.4
//
CONSTRUCT_SEQUENCE: AGAGGUAGUAGGUUGCAUAGUU
ASSAYED_SYSTEM: SLIRP (Homo sapiens)
binding signal [fluorescence intensity]: 104
